Entry source: PubChem BioAssay

# method: plasmodial surface anion channel blockers, osmotic lysis – cell-based, P. falciparum Indochina, OD700, 1 h, primary screen (AID 1154)
# measurement context: P. falciparum Indochina infected RBC osmotic lysis, called active from +8 up or from −8 down
The source made the active and inactive calls.
Outcome field: choose from active, inactive

Example results:
COCCOC(=O)N1C(=O)[C@@]2(c3cc(C#Cc4ccc(OC)cc4)ccc31)[C@H](C(N)=O)[C@H]1C(=O)O[C@H](c3ccccc3)[C@H](c3ccccc3)N1[C@@H]2c1ccc(O)cc1 :: inactive
C#C[C@H](O[Si](C#CCCCCCC)(C(C)C)C(C)C)c1ccccc1 :: inactive
COC(=O)[C@@]1(Cc2ccc(OC)cc2)[C@H]2c3cc(C(=O)N4CCCC4)n(CCc4ccccn4)c3C[C@H]2CN1C(=O)c1ccccc1 :: inactive

## Input Give the logged outcome of this assay for the following molecule: COCCOC(=O)N1C(=O)[C@@]2(c3ccccc31)[C@H](c1ccc(O)cc1)N1[C@H](c3ccccc3)[C@H](c3ccccc3)OC(=O)[C@H]1[C@@H]2C(N)=O
## Output inactive

## Input For this molecule, state the assay outcome: COC(=O)c1nc2oc1CC[C@@H](CO)NC(=O)N(C)Cc1cn(nn1)C[C@H](Cc1ccccc1)NC2=O
## Output inactive

## Input How did this test come out for COC(=O)[C@@]1(Cc2ccccc2)[C@H]2c3cc(C(=O)N(C)C)n(Cc4ccccc4)c3C[C@H]2CN1C(=O)c1ccccc1 ?
## Output inactive

## Input Fill in: this test's call for O=C1OCCC=C[C@H]2OC34C=CCN(c5ccc6ccccc6c5)C(=O)[C@H]3N(CCCCCCO)C(=O)[C@@H]4C12 (stereo not given in full) is ___
## Output inactive

## Input // param item: Cc1ccc([C@H]2C(C(=O)O)=C[C@@H](C(C)C)N2S(=O)(=O)c2ccc(C)cc2)cc1 ; yields the recorded call
## Output inactive

## Input State the result this test recorded for COc1ccccc1CN1C(=O)c2ccccc2[C@](Cc2ccccc2I)(C(=O)NC2CC2)[C@@H]1c1ccc(CO)cc1 .
## Output active

## Input Given COCCOC(=O)N1C(=O)[C@@]2(c3ccccc31)[C@H](C(=O)N1CCCCCCC1)[C@H]1C(=O)O[C@H](c3ccccc3)[C@H](c3ccccc3)N1[C@@H]2c1ccccc1OCCO , state the outcome it received in this test.
## Output inactive

## Input Hi, sorry to bother you, what did the test record for COC(=O)C(CC#Cc1ccc2c(c1)[C@]1(C(=O)N2)[C@H](C(=O)N2CCCCCCC2)[C@H]2C(=O)O[C@H](c3ccccc3)[C@H](c3ccccc3)N2[C@@H]1c1ccccc1OCCO)C(=O)OC ?
## Output inactive

## Input Tell me the recorded outcome of this test for COCCOC(=O)N1C(=O)[C@@]2(c3cc(C#CCCO)ccc31)[C@H](C(=O)NC[C@H](O)c1ccccc1)[C@H]1C(=O)O[C@H](c3ccccc3)[C@H](c3ccccc3)N1[C@@H]2c1ccc(OCCO)cc1 .
## Output inactive

## Input Hey, what did the test say about CCN(CC)c1ccc(N2CC=CC34O[C@@H]5/C=C\CCC(C)OC(=O)C5[C@H]3C(=O)N(CCCCCCO)[C@@H]4C2=O)cc1 (stereo not given in full) ?
## Output inactive

## Input Could you kindly confirm the outcome this assay logged for C=CC[C@@]1(C(=O)OC)N=C(c2ccc(OCCCO)cc2)O[C@@H]1c1ccccc1CN=[N+]=[N-] ?
## Output active

## Input Can you look up the reported call for [N-]=[N+]=NCc1ccccc1[C@@H]1OC(c2ccc(OCCCO)cc2)=N[C@]1(Cc1ccccc1)C(=O)O for me?
## Output active

###

# target desc: Albumin (Bos taurus)
# method: compounds binding labelled BSA control protein – biochemical, small-molecule microarray, Alexa647 label, 635/667 nm fluorescence, artefact control for SMM control protein annotation, profiling panel (AID 1118);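 further: score merges 667 nm emission intensity and signal-to-noise per printed compound spot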
# measurement context: BSA-A647 binding, fluorescence 635 nm, higher = more signal
Tag: Met if measured composite z-score is not below -0.02, Not met if it is.

// known answers, use as guide
COC(=O)[C@@]1(Cc2ccc(OC)cc2)[C@H]2c3cc(C(=O)N(C)C)n(CCSCCO)c3C[C@H]2CN1C(=O)c1ccccc1 :: Met
C=CC[C@@]1(C(N)=O)N=C(c2ccc(OCCCO)cc2)O[C@@H]1c1ccccc1N=[N+]=[N-] :: Met

## Input Evaluate COc1ccc([Si](C)(C)[C@H]2[C@H](CCO)O[C@@]3(C(=O)N(Cc4ccccc4)c4ccc(N5C(=O)COc6ccccc65)cc43)[C@@H]2C)cc1 : composite z-score at minimum -0.02?
## Output Met

###

Items are presented alongside their recorded composite z-score.
# method: probe aLAP1 signal on lysate-treated microarray – cell lysate, small-molecule microarray, COS7 lysate, primary screen (AID 1124);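 further: lysate comes from COS7 cells expressing LAP1 and is applied at 0.3 µg/mL; score merges spot fluorescence near 667 nm with signal-to-noise over triplicate slides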
# measurement context: probe aLAP1, fluorescence, higher = more signal

Use these answered entries as a reference point.
C=C(C(=O)CC[C@@H](OC(=O)c1cccnc1)c1ccc(CO)o1)C(C)C :: 0.697
COc1ccc([Si](C)(C)[C@@H]2[C@@H](CCO)O[C@]3(C(=O)N(Cc4ccccc4)c4ccc(N(C=O)c5ccccc5)cc43)[C@H]2C)cc1 :: 0.719
COc1ccc(C(=O)Nc2cccc(CN3C(=O)[C@@]4(O[C@@H](CC(=O)N5Cc6ccccc6C[C@H]5CO)[C@H]([Si](C)(C)c5ccc(OC)cc5)[C@H]4C)c4ccccc43)c2)cc1 :: -0.0148
O=C1O[C@@H](c2ccccc2)[C@@H](c2ccccc2)N2[C@@H](c3ccc(O)cc3)[C@]3(C(=O)Nc4ccccc43)[C@@H](C(=O)NC[C@H](O)c3ccccc3)[C@H]12 :: -0.238

## Input Given the compound COc1c(C)cc(-c2cc3c(c(-c4ccccc4)n2)[Si](C(C)C)(C(C)C)O[C@H]3c2ccccc2)cc1C , what is its reported composite z-score?
## Output -0.325

###

# target desc: Fibroblast growth factor 10 (Homo sapiens)
# method: compounds binding fibroblast growth factor 10 – biochemical, small-molecule microarray, 635 nm fluorescence, primary screen (AID 1102)
# measurement context: FGF10 binding, fluorescence 635 nm, higher = more signal
experimental endpoint: composite z-score
Number only, no unit.

Previously resolved entries follow.
COc1ccc([Si](C)(C)[C@@H]2[C@@H](CCn3cc([C@H](O)c4ccccc4)nn3)O[C@]3(C(=O)N(C)c4ccccc43)[C@H]2C)cc1 :: 0.0782
COc1ccccc1CN1C(=O)c2ccccc2[C@](Cc2ccccc2I)(C(=O)NC2CC2)[C@@H]1c1ccc(CO)cc1 :: 1.23
CCCC[C@H]1C[C@@H]1[C@@H]1N(P(=O)(c2ccccc2)c2ccccc2)[C@](CO)(c2ccccc2)CC12CC2 :: 0.104
C=CCC(OC(C)=O)[C@@H]1[C@@H](N(Cc2cc3ccccc3o2)C(=O)c2cccc3ccccc23)c2cc(OCCCO)ccc2N1C(=O)Cc1ccc2ccccc2c1 (some centres not stated) :: 0.0259
CCOC(=O)C=Cc1cccc(OC)c1O :: -0.96

## Input Request - read-out composite z-score | tested on Fibroblast growth factor 10 (Homo sapiens) | compound COc1ccc([Si](C)(C)[C@@H]2[C@@H](CCO)O[C@]3(C(=O)N(Cc4ccccc4)c4ccc(N(C=O)c5ccccc5)cc43)[C@H]2C)cc1
## Output 0.454

## Input Record lookup: for Fibroblast growth factor 10 (Homo sapiens), what composite z-score belongs to COc1ccc([Si](C)(C)[C@H]2[C@H](CCO)O[C@@]3(C(=O)N(Cc4cccc(N5C(=O)c6cccc7cccc5c67)c4)c4ccccc43)[C@@H]2C)cc1 ?
## Output 0.668

###

Here, each record is paired with measured z-score data.
# method: JC-1 mitochondrial potential readout, lung cancer cells – cell-based, A549, JC-1 fluorescence, basal, 24 h, 100 nL, profiling panel (AID 1138);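 further: A549 lung adenocarcinoma cells under basal conditions with no added stimulus; test concentration not given here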
# measurement context: higher = more signal
Please reply with the number alone, leaving off any unit.

COc1cc(CO)cc(I)c1O[C@H]1C=C(C(=O)NCCO)C[C@@H](N(CCc2cccc(F)c2)C(=O)CCC2CCCC2)[C@@H]1O :: -0.172
O=c1cccc(-c2ccccc2)o1 :: 0.103
Cc1ccc(N2C(=O)c3ccccc3[C@@H](C(=O)NC(C)C)[C@@H]2c2ccc(CO)cc2)nc1 :: -1.05
CCCC[C@H]1C[C@@H]1[C@@H]1N(P(=O)(c2ccccc2)c2ccccc2)[C@](CO)(c2ccccc2)CC12CC2 :: -1.75
O=C1O[C@@H](c2ccccc2)[C@@H](c2ccccc2)N2[C@@H](c3ccccc3OCCO)[C@]3(C(=O)Nc4ccc(C#CC5(O)CCCCCC5)cc43)[C@@H](C(=O)NC[C@H](O)c3ccccc3)[C@H]12 :: -1.15

## Input Entry under review: CN(C)CCCCCCNC(=O)[C@@H]1C[C@@H]2C(=O)N[C@@H](Cc3ccccc3)C(=O)N2[C@@H]1c1cccc(OCCO)c1 . Reported z-score?
## Output -0.37

## Input Please look up its z-score: Cc1ccc(S[C@]2(C(=O)NCC(F)(F)F)CC(=O)N(C3Cc4ccccc4C3)[C@@H]2c2ccc(CO)cc2I)cc1
## Output 0.496

## Input May I ask what z-score has been recorded for COCCn1c(C(=O)N(C)C)cc2c1C[C@H]1CN(C(=O)c3ccccc3)[C@@](Cc3ccc(F)cc3)(C(=O)OC)[C@@H]21 ?
## Output 0.33

## Input I have this compound here, C=C(COC)/C(=C/C[C@H](OC(C)=O)c1ccccc1OCCO)c1cnc2ccccc2c1 , and I need its recorded z-score.
## Output 0.0177

## Input Looking for the measured z-score of COCCOC(=O)N1C(=O)[C@@]2(c3cc(C#Cc4ccc(OC)cc4)ccc31)[C@H](c1ccc(O)cc1)N1[C@H](c3ccccc3)[C@H](c3ccccc3)OC(=O)[C@H]1[C@@H]2C(=O)N1CCN(c2ncccn2)CC1 , can you help?
## Output -0.863

## Input What z-score value was documented for this compound, CC(=O)n1cc(C(O)C2C=CC3C(=O)N(c4ccccc4)C(=O)C3N2Nc2ccc(C#N)cc2)c2ccccc21 (stereo not given) ?
## Output 0.0139

## Input For the compound C=CCC(OC(C)=O)[C@@H]1[C@@H](N(Cc2cc3ccccc3o2)C(=O)c2ccc(-c3ccccc3)cc2)c2cc(OCCCO)ccc2N1C(=O)Cc1ccc2ccccc2c1 (stereo not given in full) , what z-score is on record?
## Output 1.33

## Input Any idea what z-score was measured for CN(C)CCCC[C@@H]1NC(=O)[C@H]2C[C@@H](C(=O)NCCCCCNC(=O)CS)[C@@H](c3ccc(O)cc3)N2C1=O ?
## Output 0.64

## Input Could you share which z-score value was measured for C=CCN1C(=O)[C@]2(COC(c3ccc(OCCCO)cc3)=N2)Cc2ccccc21 ?
## Output 0.604

## Input Need z-score of CN1C(=O)C2C(C1=O)C1C=C(c3ccc(CO)cc3)C2C(C2CC2)N1Cc1cc2c(cc1Br)OCO2 (stereo not given) , thanks.
## Output 1.34

## Input Item CCCC[C@H]1OB(O)C[C@H]2C1=C(COc1ccccc1)C[C@H]1C(=O)N(Cc3ccccc3)C(=O)[C@H]12 has what recorded z-score?
## Output 0.742

## Input // z-score lookup, key: O=C(NCc1ccccc1)[C@@H]1c2ccccc2C(=O)N(C2CCCCC2)[C@H]1c1ccc(CO)cc1
## Output 2.15

## Input Field request: z-score | item: COc1ccc([Si](C)(C)[C@H]2[C@H](CC(=O)N3CCC[C@H]3CO)O[C@@]3(C(=O)N(c4ccccc4)c4ccccc43)[C@@H]2C)cc1
## Output 0.16

## Input Given the entry O=C1OCCC=C[C@H]2OC34C=CCN(c5ccc6ccccc6c5)C(=O)[C@H]3N(CCCCCCO)C(=O)[C@@H]4C12 (stereo not given in full) , report its measured z-score.
## Output 1.48

## Input What value of z-score has been recorded for this entry: CN(C)CCCCCCNC(=O)[C@@H]1C[C@@H]2C(=O)NCC(=O)N2[C@@H]1c1cccc(OCCO)c1
## Output 0.295

## Input // z-score lookup, key: CCCC[C@@H]1C[C@H]1[C@@H](NC(=O)c1ccco1)c1ccccc1
## Output 0.542

## Input Field request: z-score | item: COCCCNC(=O)[C@@]1(Cc2ccccc2I)c2ccccc2C(=O)N(Cc2ccccc2)[C@H]1c1ccc(CO)cc1
## Output 1.28
